# assayOverview: LNP particle size and PDI by dynamic light scattering
# Type: physicochemical
# setupConditions: LNP: ionizable lipid/DSPC/Chol/DMG‐PEG2000 50:10:38.5:1.5, N/P 6; DLS
observable: Size (nm)
Reply with the number and its unit after it.

Measured Size (nm) of CCCCCCCCCCCOC(=O)CCCCCC1(CCCCCCCC(=O)OC(CCCCCCCC)CCCCCCCC)OCC(CCN(C)CC)O1 (stereo not drawn) [KEL5] : 78.44 nm

Measured Size (nm) of CCCCCCCCCCCOC(=O)CCCCCC1(CCCCCC(=O)OCCCCCCCCCCC)OCC(CCN(C)C)O1 (stereo not drawn) [KEL11] : 110.3 nm

// recorded Size (nm) for CCCCCCCCCCCOC(=O)CCCCCC1(CCCCCCCC(=O)OC(CCCCCCCC)CCCCCCCC)OCC(CCN(C)CCC)O1 (stereo not drawn) [KEL7] : 61.73 nm

* * *

# assayOverview: LNP particle size and PDI by dynamic light scattering
# Type: physicochemical
# setupConditions: LNP: ionizable lipid/DSPC/Chol/DMG‐PEG2000 50:10:38.5:1.5, N/P 6; DLS
# Description: Particle size and polydispersity index (PDI) were determined by dynamic light scattering (DLS), apparent pKa was assessed using 6‐(p‐toluidino)‐2‐naphthalenesulfonic acid (TNS) dye‐binding assay, while encapsulation efficiency was evaluated by a RiboGreen accessibility assay. The sizes of the LNP formulations were assessed by DLS (Malvern Zetasizer Pro). Quant‐it RiboGreen assay (ThermoFisher Scientific, Cat# R11490) was used to measure the encapsulation efficiency of the LNP formulations. […]
observable: PDI
Could you keep your reply to the number by itself?

Measured PDI, CCCCCCCCCCCOC(=O)CCCCCC1(CCCCCCCC(=O)OC(CCCCCCCC)CCCCCCCC)OCC(CCCN(C)C)O1 (centres unmarked) : 0.16

Query CCCCC/C=C\C/C=C\CCCCCCCCC(CCCCCCCC/C=C\C/C=C\CCCCC)OC(=O)CCCN(C)C [DLin‐MC3‐DMA, reference compound] yields PDI of 0.15

// CCCCCCCCCCCOC(=O)CCCCCC1(CCCCCCCC(=O)OC(CCCCCCCC)CCCCCCCC)OCC(CCN(C)CCC)O1 (centres unmarked) : PDI value = 0.10

get_value(item= CCCCCCCCCCC(=O)OCCCCCCC1(CCCCCCCCOC(=O)C(CCCCCCCC)CCCCCCCC)OCC(CCN(C)C)O1 (centres unmarked) , readout=PDI) returns 0.09

Lab note: measured PDI of CCCCCCCCCCCOC(=O)CCCCCC1(CCCCCCCC(=O)OC(CCCCCCCC)CCCCCCCC)OCC(CCCCN(C)C)O1 (centres unmarked) was 0.16

These measurements were taken from paper PMC11615764.
